assay: Photochromic properties of spiropyran compounds in methyl polymethacrylate film; format: physicochemical; settings: film 1.0×10^-4 mol/g, 0.1 mm thick, mercury lamp, 10 cm, 60 seconds, 25° C.
outcomeMeasure: Developed color tone

Solved entries (count: 5):
Which value of Developed color tone has been reported for C1=CC2CCCC(C1)C21Oc2ccc3ccccc3c2C(c2ccccc2)=C1CCc1ccccc1 (centres unmarked) in the records?
yellow

Which value of Developed color tone has been reported for CCCC1=Cc2c(ccc3ccccc23)OC12C1C=CCC2CCC1 (centres unmarked) in the records?
yellow

Which value of Developed color tone has been reported for CCCCC1=CC2(Oc3c1ccc1ccccc31)C1C=CCC2CCC1 (centres unmarked) in the records?
yellow

Which value of Developed color tone has been reported for CC1(C)CCC2(C)CC=CC1C21C=C(c2ccccc2)c2cccnc2O1 (centres unmarked) in the records?
orange

Which value of Developed color tone has been reported for CCCC12CC=CC(CCC1)C21C=C(CC)c2ccc3c(-c4ccccc4)cccc3c2O1 (centres unmarked) in the records?
yellow

Continuing:
Which value of Developed color tone has been reported for CCC1=C(Cc2ccccc2)C2(Oc3scc(Br)c31)C1C=CCC2CCC1 (centres unmarked) in the records?
orange

Which value of Developed color tone has been reported for CCCC1=C(Cc2ccccc2)c2c(ccc3ccccc23)OC12C1C=CCC2CCC1 (centres unmarked) in the records?
yellow

Which value of Developed color tone has been reported for CCC1=C(CC)C2(Oc3c1ccc1ccccc31)C1C=CCC2CCC1 (centres unmarked) in the records?
yellow

Which value of Developed color tone has been reported for ClC12CC=CC(CCC1)C21C=C(Cc2ccccc2)c2c(cnc3ccccc23)O1 (centres unmarked) in the records?
yellow

Which value of Developed color tone has been reported for C1=CC2CCCC(C1)C21Oc2ccc3ccccc3c2C=C1CCc1ccccc1 (centres unmarked) in the records?
yellow

Which value of Developed color tone has been reported for CCC1=Cc2c(cnc3ccccc23)OC12C1C=CCC2CCC1 (centres unmarked) in the records?
yellow

Which value of Developed color tone has been reported for CC(C)C1=Cc2c(ccc3ccccc23)OC12C1C=CCC2CCC1 (centres unmarked) in the records?
yellow

Which value of Developed color tone has been reported for COc1ccc(C2=Cc3c(ccc4ccccc34)OC23C2C=CCC3CCC2)cc1 (centres unmarked) in the records?
yellow

Which value of Developed color tone has been reported for CCCCC1=CC2(Oc3c(C#N)cccc31)C1C=CCC2CCC1 (centres unmarked) in the records?
orange

====

assay: Photochromic properties of spiropyran compounds in methyl polymethacrylate film; assay type: physicochemical; conditions: time until absorbancy decreases to one-half {ε(60 sec)-ε(0 sec)} after irradiation for 60 seconds
Each entry below carries its recorded t1/2 (half-value period).
# output: bare number, implied unit s

Which value of t1/2 (half-value period) has been reported for CCC1=Cc2c(cnc3ccccc23)OC12C1C=CCC2CCC1 (centres unmarked) in the records?
22

Which value of t1/2 (half-value period) has been reported for CCC1=C(Cc2ccccc2)C2(Oc3scc(Br)c31)C1C=CCC2CCC1 (centres unmarked) in the records?
12

Which value of t1/2 (half-value period) has been reported for C1=CC2CCCC(C1)C21Oc2ccc3ccccc3c2C(c2ccccc2)=C1CCc1ccccc1 (centres unmarked) in the records?
17

Which value of t1/2 (half-value period) has been reported for CCCCC1=CC2(Oc3c1ccc1ccccc31)C1C=CCC2CCC1 (centres unmarked) in the records?
110

Shift focus to the following entry.
Which value of t1/2 (half-value period) has been reported for CCC1=C(CC)C2(Oc3c1ccc1ccccc31)C1C=CCC2CCC1 (centres unmarked) in the records?
28

Cited source for all entries: patent US5693830A
